# measurement-protocol: High-throughput drug toxicity screening in the BPDCN cell line Gen2.2 (AID 1224824);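 further: cells exposed to compounds for 48 h before reading; 100% = DMSO and 0% = bortezomib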
# conditions-used: Gen2.2 BPDCN cells; at 45.8 µM (top of the series) unless noted
parameter: cell viability, % of control (lower = more cytotoxic) (%)
Field: numeric (%). Do not append units.

Example entries begin here.
compound | units-symbol | measurement
COC(=O)C1=C(C)NC(C)=C(C(=O)OC(C)C)C1c1cccc2nonc12 (configuration not stated) | % | 131
CN(C)[C@@H](CCOc1cccc2ccccc12)c1ccccc1 | % | 165
O=c1oc2cc(O)ccc2s1 | % | 68.5

Query: Which cell viability, % of control (lower = more cytotoxic) is reported for this compound? "C[C@H](Cn1cnc2c(N)ncnc21)OCP(=O)(O)O"
Reply: 168

Query: What about CCCS(=O)c1ccc2nc(NC(=O)OC)[nH]c2c1 (configuration not stated) ?
Reply: 32.3

src = PubChem BioAssay (NCATS)
